- STUDY SYSTEM: Glutamate NMDA receptor (Rattus norvegicus) (UniProt P35439+Q00959+Q00960+Q00961+Q62645+Q8VHN2+Q9R1M7)
- ASSAY TEXT: Inhibition of NMDA receptor in rat cortical embryonic neurons assessed as reduction in NMDA-induced cytosolic calcium level at 10 uM by Fluo-4 AM dye based fluorescence assay relative to control
MEASURED PARAMETER: inhibition (%)

Answered examples (3):
[
  {
    "SMILES REPR": "Cc1ccc2c(c1)c(CN1CCCCC1)cn2Cc1ccc(F)cc1",
    "READOUT NUMBER": 34
  },
  {
    "SMILES REPR": "Cc1ccc2c(c1)c(CN1CCCCC1)cn2Cc1cccc(Cl)c1",
    "READOUT NUMBER": 37
  },
  {
    "SMILES REPR": "Cc1ccc2c(c1)c(CN1CCCCC1)cn2Cc1ccc(Cl)cc1",
    "READOUT NUMBER": 52
  }
]

(A) Cc1ccc(Cn2cc(CN3CCCCC3)c3cc(C)ccc32)cc1
(B) Cc1ccc2c(c1)c(CN1CCCCC1)cn2Cc1cccc([N+](=O)[O-])c1
Between item A and item B , which reported inhibition is smaller? Lab note: record the label of whichever item you select. B

(a) Cc1ccc2c(c1)c(CN1CCCCC1)cn2Cc1ccccc1
(b) Cc1ccc2c(c1)c(CN1CCCCC1)cn2Cc1ccccc1[N+](=O)[O-]
Between item a and item b , which reported inhibition is smaller? Lab note: record the label of whichever item you select. b
(b: 24%, a: 42%)

---

- Tested on: Voltage-gated calcium channel
- ASSAY TEXT: Inhibition of KCl-induced cytosolic voltage gated calcium channel opening in human SH-SY5Y cells at 10 uM by Fluo-4 AM dye based fluorescence assay relative to control
- Format: cell-based
MEASURED PARAMETER: inhibition (INH) (%)

[
  {
    "COMPOUND": "Cc1ccc2c(c1)c(CN1CCCCC1)cn2Cc1cccc(Cl)c1",
    "SCALE UNIT": "%",
    "READOUT NUMBER": 97
  },
  {
    "COMPOUND": "Cc1ccc2c(c1)c(CN1CCCCC1)cn2Cc1ccccc1",
    "SCALE UNIT": "%",
    "READOUT NUMBER": 87
  },
  {
    "COMPOUND": "Cc1ccc2c(c1)c(CN1CCCCC1)cn2Cc1cccc([N+](=O)[O-])c1",
    "SCALE UNIT": "%",
    "READOUT NUMBER": 90
  },
  {
    "COMPOUND": "COC(=O)C1=C(C)NC(C)=C(C(=O)OC)C1c1ccccc1[N+](=O)[O-] [NIFEDIPINE]",
    "SCALE UNIT": "%",
    "READOUT NUMBER": 32
  },
  {
    "COMPOUND": "Cc1ccc2c(c1)c(CN1CCCCC1)cn2Cc1ccc(F)cc1",
    "SCALE UNIT": "%",
    "READOUT NUMBER": 79
  },
  {
    "COMPOUND": "Cc1ccc2c(c1)c(CN1CCCCC1)cn2Cc1ccc(Cl)cc1",
    "SCALE UNIT": "%",
    "READOUT NUMBER": 95
  },
  {
    "COMPOUND": "Cc1ccc(Cn2cc(CN3CCCCC3)c3cc(C)ccc32)cc1",
    "SCALE UNIT": "%",
    "READOUT NUMBER": 94
  },
  {
    "COMPOUND": "Cc1ccc2c(c1)c(CN1CCCCC1)cn2Cc1ccccc1[N+](=O)[O-]",
    "SCALE UNIT": "%",
    "READOUT NUMBER": 90
  }
]
